Provenance of the data: patent US20140148432A1

# experimental_target: GluN1/GluN2D subtype of NMDA receptors (Rattus norvegicus, UniProt Q62645)
# Sequence (Q62645 28-1323, other chains not shown): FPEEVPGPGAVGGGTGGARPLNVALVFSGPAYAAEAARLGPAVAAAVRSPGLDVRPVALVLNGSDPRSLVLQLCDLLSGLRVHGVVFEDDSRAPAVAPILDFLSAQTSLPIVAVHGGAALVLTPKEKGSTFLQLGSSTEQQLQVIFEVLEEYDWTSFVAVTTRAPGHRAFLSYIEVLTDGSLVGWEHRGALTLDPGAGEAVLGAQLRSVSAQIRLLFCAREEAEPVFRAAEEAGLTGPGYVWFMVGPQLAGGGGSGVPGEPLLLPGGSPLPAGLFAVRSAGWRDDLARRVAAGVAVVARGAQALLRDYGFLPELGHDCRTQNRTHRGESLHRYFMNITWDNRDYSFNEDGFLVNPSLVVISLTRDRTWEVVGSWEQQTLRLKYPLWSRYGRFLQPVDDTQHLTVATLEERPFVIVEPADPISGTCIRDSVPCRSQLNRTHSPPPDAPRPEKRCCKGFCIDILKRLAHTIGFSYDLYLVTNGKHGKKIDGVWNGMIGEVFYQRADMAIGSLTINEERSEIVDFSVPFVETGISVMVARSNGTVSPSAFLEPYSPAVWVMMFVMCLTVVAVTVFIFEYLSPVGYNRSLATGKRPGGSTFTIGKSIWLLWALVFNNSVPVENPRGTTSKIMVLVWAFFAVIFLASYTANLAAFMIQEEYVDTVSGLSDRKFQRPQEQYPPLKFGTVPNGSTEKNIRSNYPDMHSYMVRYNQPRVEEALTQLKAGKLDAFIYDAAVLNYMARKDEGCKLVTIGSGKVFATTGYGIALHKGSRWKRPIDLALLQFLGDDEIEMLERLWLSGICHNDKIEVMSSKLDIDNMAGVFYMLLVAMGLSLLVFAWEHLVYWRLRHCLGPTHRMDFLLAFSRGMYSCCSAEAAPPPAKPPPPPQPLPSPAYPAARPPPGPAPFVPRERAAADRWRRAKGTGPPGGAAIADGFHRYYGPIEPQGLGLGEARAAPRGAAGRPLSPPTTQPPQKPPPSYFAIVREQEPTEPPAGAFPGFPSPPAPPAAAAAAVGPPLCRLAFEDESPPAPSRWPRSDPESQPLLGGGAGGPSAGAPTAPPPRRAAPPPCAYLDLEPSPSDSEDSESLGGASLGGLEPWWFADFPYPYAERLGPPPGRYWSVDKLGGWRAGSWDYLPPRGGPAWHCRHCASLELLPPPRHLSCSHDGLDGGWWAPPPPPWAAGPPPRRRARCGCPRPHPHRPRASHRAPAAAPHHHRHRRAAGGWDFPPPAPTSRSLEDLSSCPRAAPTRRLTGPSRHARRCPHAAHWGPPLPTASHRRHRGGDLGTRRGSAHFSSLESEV
# method_notes: NMDA receptor subunit selectivity, GluN1/GluN2D in Xenopus oocytes
# Assay type: cell-based
# experimental_parameters: 2 min; 10 μM antagonist with 50 μM glutamate and 30 μM glycine, two min; agonists alone = 100%; read-out: GluN2D % Current Remaining
observation_type: remaining activity at 10 µM (%)

O=C1CCc2cc(OCC3CCN(C(=O)OCc4ccc(Cl)cc4)CC3)ccc2N1 [Compound 11] :: 104
O=C1CCc2cc(OCC3CN(C(=O)Nc4ccc(Cl)cc4)C3)ccc2N1 [Compound 21] :: 89.2
O=C1CCc2cc(OCC3CCN(C(=O)Cc4ccc(Cl)cc4)CC3)ccc2N1 [Compound 15] :: 101
O=C1CCc2cc(OCC3CN(C(=O)Nc4ccc(C(F)(F)F)cc4)C3)ccc2N1 [Compound 24] :: 84.5
